experimental target: UniProt O55192
Sequence (O55192 whole entry): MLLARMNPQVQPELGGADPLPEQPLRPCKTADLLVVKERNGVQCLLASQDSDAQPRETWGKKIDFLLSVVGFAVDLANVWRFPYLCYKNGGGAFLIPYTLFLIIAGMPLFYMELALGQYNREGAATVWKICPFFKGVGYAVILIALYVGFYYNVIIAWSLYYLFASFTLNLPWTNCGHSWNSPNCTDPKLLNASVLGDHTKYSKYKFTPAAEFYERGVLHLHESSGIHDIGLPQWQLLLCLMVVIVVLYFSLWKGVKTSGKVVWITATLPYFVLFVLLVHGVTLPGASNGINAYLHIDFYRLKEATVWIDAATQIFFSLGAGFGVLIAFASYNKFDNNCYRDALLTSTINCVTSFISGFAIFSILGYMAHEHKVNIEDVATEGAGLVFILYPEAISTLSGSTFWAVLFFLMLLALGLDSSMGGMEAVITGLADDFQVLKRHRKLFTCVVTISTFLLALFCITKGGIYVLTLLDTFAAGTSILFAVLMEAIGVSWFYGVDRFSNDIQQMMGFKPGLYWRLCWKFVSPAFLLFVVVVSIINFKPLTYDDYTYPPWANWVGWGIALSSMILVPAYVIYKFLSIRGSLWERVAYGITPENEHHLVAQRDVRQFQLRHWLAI
procedure text: [3H]MPP+ uptake inhibition in transiently transfected mNET-HEK cells
Format: cell-based
measured metric: IC50 (µM)
I only need the number, in µM, no unit after it.

**Query** Can you look up the measured IC50 of C[C@]12C[C@H](O)[C@H]3[C@@H](CCC4=CC(=O)CC[C@@]43C)[C@@H]1CC[C@@H]2C(=O)CO for me?
**Result** 840

###

experimental target: hPMAT (Homo sapiens, UniProt Q7RTT9)
Sequence (Q7RTT9 1-530): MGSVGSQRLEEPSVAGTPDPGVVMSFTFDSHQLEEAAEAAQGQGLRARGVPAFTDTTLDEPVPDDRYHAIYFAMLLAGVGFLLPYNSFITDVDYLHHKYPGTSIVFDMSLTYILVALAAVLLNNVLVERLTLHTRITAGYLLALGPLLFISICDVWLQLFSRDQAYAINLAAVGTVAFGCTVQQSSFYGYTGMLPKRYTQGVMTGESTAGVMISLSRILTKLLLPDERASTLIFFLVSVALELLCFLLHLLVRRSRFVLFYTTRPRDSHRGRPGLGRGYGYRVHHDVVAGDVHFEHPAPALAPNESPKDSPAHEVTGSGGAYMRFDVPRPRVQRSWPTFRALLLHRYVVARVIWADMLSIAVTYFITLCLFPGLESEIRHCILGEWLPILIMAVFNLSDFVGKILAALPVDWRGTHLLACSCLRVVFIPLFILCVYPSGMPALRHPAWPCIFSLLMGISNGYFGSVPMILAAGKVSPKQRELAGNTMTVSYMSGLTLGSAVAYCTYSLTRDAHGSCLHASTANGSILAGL
procedure text: [3H]MPP+ uptake competition in stable hPMAT-HEK cells
Format: cell-based
measured metric: pIC50
Just the number, please; pIC50 means minus log10 of the concentration in mol/L.

**Query** State the recorded pIC50 for this entry: C[C@]12C[C@H](O)[C@H]3[C@@H](CCC4=CC(=O)CC[C@@]43C)[C@@H]1CC[C@@H]2C(=O)CO
**Result** 2.98
